Just for reference, patent US11667636B2 is where these values come from.

- Assay target: human MRGPRX2 (Homo sapiens)
- Procedure details: MRGPRX2 Activity: IP-One HTRF antagonist assay in CHO cells stably expressing human MRGPRX2, versus Cortistatin-14
- Test parameters: versus 0.3 uM Cortistatin-14 agonist, IP-1 HTRF, read-out: MRGPR2 Antagonist Activity
pIC50: −log10 of the molar value.
Please respond with reported pIC50 for every item in the list.

Endpoint output: pIC50 of Cn1cc(C(=O)NC2CCC(Nc3cccc4nc(C(F)(F)F)cn34)CC2)c2ccccc21 (stereo not shown) . Value? > 7.30

And what about the compound O=C(N[C@H]1CC[C@@H](Nc2cccc3nc(C(F)(F)F)cn23)CC1)c1ccncc1 ? 6.30 to 7.00

And what about the compound NS(=O)(=O)c1ccc(C(=O)N[C@H]2CC[C@@H](Nc3cccc4nc(C(F)(F)F)cn34)CC2)cc1 ? > 7.30

And what about the compound O=C(N[C@H]1CC[C@@H](Nc2cccc3nc(C(F)(F)F)cn23)CC1)c1cnc2nccn2c1 ? 6.30 to 7.00

And what about the compound O=C(N[C@H]1CC[C@@H](Nc2cccc3nc(C(F)(F)F)cn23)CC1)c1ccc(N2CCOCC2)cc1 ? > 7.30

And what about the compound O=C(N[C@H]1CC[C@@H](Nc2cccc3nc(C(F)F)cn23)CC1)c1ccnc2cn[nH]c12 ? > 7.30

And what about the compound O=C(N[C@H]1CC[C@@H](Nc2cccc3nc(C(F)(F)F)cn23)CC1)c1ccccc1NCC(F)F ? > 7.30

And what about the compound O=C(N[C@H]1CC[C@@H](Nc2cccc3nc(C(F)(F)F)cn23)CC1)c1ccnc2[nH]ccc12 ? > 7.30

And what about the compound COc1ccc(C(=O)N[C@H]2CC[C@@H](Nc3cc(C)cc4nc(C(F)(F)F)cn34)CC2)cc1 ? 6.30 to 7.00

And what about the compound CCCn1cc(C(=O)N[C@H]2CC[C@@H](Nc3cccc4nc(C(F)F)cn34)CC2)cn1 ? 6.30 to 7.00

And what about the compound CC(C)(O)Cn1cc(C(=O)N[C@H]2CC[C@@H](Nc3cccc4nc(C(F)F)cn34)CC2)c(Cl)n1 ? 6.30 to 7.00

And what about the compound Cc1cc(C(=O)N[C@H]2CC[C@@H](Nc3cccc4nc(C(F)F)cn34)CC2)cn1C(F)F ? > 7.30

And what about the compound O=C(N[C@H]1CC[C@@H](Nc2cccc3nc(C(F)(F)F)cn23)CC1)c1cnn(CC(F)F)c1C(F)F ? 6.30 to 7.00

And what about the compound Cc1nc2cccc(C(=O)N[C@H]3CC[C@@H](Nc4cccc5nc(C(F)(F)F)cn45)CC3)c2s1 ? > 7.30

And what about the compound O=C(N[C@H]1CC[C@@H](Nc2cccc3nc(C(F)(F)F)cn23)CC1)c1ccc(OCCF)cc1 ? > 7.30

And what about the compound CC(=O)c1cc2c(N[C@H]3CC[C@@H](NC(=O)c4ccc(F)cc4)CC3)cccc2s1 ? 6.30 to 7.00

---

- Assay target: human MRGPRX2 (Homo sapiens, UniProt Q96LB1)
- Construct: expressed in transfected cells
- Sequence (Q96LB1 whole entry): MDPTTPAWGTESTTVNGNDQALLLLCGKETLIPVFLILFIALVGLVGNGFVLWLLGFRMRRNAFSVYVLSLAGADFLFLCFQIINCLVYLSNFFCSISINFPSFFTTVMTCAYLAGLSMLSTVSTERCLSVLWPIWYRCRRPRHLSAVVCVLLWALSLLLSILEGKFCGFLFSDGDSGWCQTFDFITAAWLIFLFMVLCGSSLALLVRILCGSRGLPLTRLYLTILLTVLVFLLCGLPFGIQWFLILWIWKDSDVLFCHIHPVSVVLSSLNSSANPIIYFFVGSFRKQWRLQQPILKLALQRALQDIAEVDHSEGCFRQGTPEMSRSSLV
- Procedure details: MRGPRX2 Activity: IP-One HTRF antagonist assay in CHO cells stably expressing human MRGPRX2, versus Cortistatin-14
- Format: cell-based
- Test parameters: versus 0.3 uM Cortistatin-14 agonist, IP-1 HTRF, read-out: MRGPR2 Antagonist Activity
pIC50: −log10 of the molar value.
Please respond with reported pIC50 for every item in the list.

Endpoint output: pIC50 of CCc1cc(C(=O)N[C@H]2CC[C@@H](Nc3cccc4nc(C(F)(F)F)cn34)CC2)nn1CC . Value? 6.30 to 7.00

And what about the compound O=C(N[C@H]1CC[C@@H](Nc2cccc3nc(C(F)F)cn23)CC1)c1ccc(F)cc1Cl ? 6.30 to 7.00

And what about the compound CC(C)n1cc(C(=O)N[C@H]2CC[C@@H](Nc3cccc4nc(C(F)(F)F)cn34)CC2)c(Cl)n1 ? > 7.30

And what about the compound CN(C)c1ccc(C(=O)N[C@H]2CC[C@@H](Nc3cccc4nc(C(F)(F)F)cn34)CC2)c(F)c1 ? 7.00 to 7.29

And what about the compound O=C(N[C@H]1CC[C@@H](Nc2cccc3nc(C(F)F)cn23)CC1)c1cn(C(F)(F)F)nc1Cl ? 7.00 to 7.29

And what about the compound CN(C)c1ccc(C(=O)N[C@H]2CC[C@@H](Nc3cccc4nc(C#N)cn34)CC2)cc1 ? > 7.30

And what about the compound CC(=O)Nc1cccc(C(=O)N[C@H]2CC[C@@H](Nc3cccc4sc(C(F)(F)F)cc34)CC2)c1 ? < 6.00

And what about the compound COc1ccc(C(=O)N[C@H]2CC[C@@H](Nc3cccc4nc(C(F)(F)F)cn34)CC2)cc1 ? > 7.30

---

- Assay target: human MRGPRX2 (Homo sapiens, UniProt Q96LB1)
- Procedure details: MRGPRX2 Activity: IP-One HTRF antagonist assay in CHO cells stably expressing human MRGPRX2, versus Cortistatin-14
- Test parameters: versus 0.3 uM Cortistatin-14 agonist, IP-1 HTRF, read-out: MRGPR2 Antagonist Activity
pIC50: −log10 of the molar value.
Please respond with reported pIC50 for every item in the list.

Endpoint output: pIC50 of Cn1cc(C(=O)N[C@H]2CC[C@@H](Nc3cccc4nc(C(F)(F)F)cn34)CC2)c2ccccc21 . Value? > 7.30

And what about the compound O=C(N[C@H]1CC[C@@H](Nc2cccc3nc(C(F)(F)F)cn23)CC1)c1cnc[nH]1 ? 6.30 to 7.00

And what about the compound Cc1n[nH]c2c(C(=O)N[C@H]3CC[C@@H](Nc4cccc5nc(C(F)(F)F)cn45)CC3)ccnc12 ? 6.30 to 7.00

And what about the compound O=C(N[C@H]1CC[C@@H](Nc2cccc3nc(C(F)F)cn23)CC1)c1ccnc2[nH]ccc12 ? > 7.30

And what about the compound O=C(N[C@H]1CC[C@@H](Nc2cccc3nc(C(F)F)cn23)CC1)c1cn(C(F)F)nc1C(F)F ? > 7.30

And what about the compound O=C(N[C@H]1CC[C@@H](Nc2cccc3nc(C(F)(F)F)cn23)CC1)c1cccc2c(F)n[nH]c12 ? > 7.30

And what about the compound O=C(N[C@H]1CC[C@@H](Nc2cccc3nc(C(F)(F)F)cn23)CC1)c1cc2cc(F)cnc2[nH]1 ? > 7.30

And what about the compound O=C(N[C@H]1CC[C@@H](Nc2cccc3nc(C(F)F)cn23)CC1)c1ccc(F)nc1 ? 6.30 to 7.00

And what about the compound CC(C)S(=O)(=O)Nc1ccc(C(=O)N[C@H]2CC[C@@H](Nc3cccc4nc(C(F)(F)F)cn34)CC2)cc1 ? > 7.30

And what about the compound CN(C)c1ccc(C(=O)N[C@H]2CC[C@@H](Nc3cccc4nc(C(F)(F)F)cn34)CC2)cc1 ? > 7.30

And what about the compound CNc1ccccc1C(=O)N[C@H]1CC[C@@H](Nc2cccc3nc(C(F)F)cn23)CC1 ? 7.00 to 7.29

And what about the compound O=C(N[C@H]1CC[C@@H](Nc2cccc3nc(C(F)(F)F)cn23)CC1)c1cn(CC(F)F)nc1Cl ? > 7.30

And what about the compound O=C(N[C@H]1CC[C@@H](Nc2cccc3nc(C(F)F)cn23)CC1)c1cccc2cn[nH]c12 ? > 7.30

And what about the compound CS(=O)(=O)Nc1cccc(C(=O)N[C@H]2CC[C@@H](Nc3cccc4sc(C(F)(F)F)cc34)CC2)c1 ? 7.00 to 7.29

And what about the compound O=C(N[C@H]1CC[C@@H](Nc2cccc3nc(C(F)(F)F)cn23)CC1)c1noc2ccccc12 ? 6.30 to 7.00

And what about the compound O=C(N[C@H]1CC[C@@H](Nc2cccc3nc(C(F)F)cn23)CC1)c1cncs1 ? 6.30 to 7.00

---

- Assay target: human MRGPRX2 (Homo sapiens, UniProt Q96LB1)
- Procedure details: MRGPRX2 Activity: IP-One HTRF antagonist assay in CHO cells stably expressing human MRGPRX2, versus Cortistatin-14
- Test parameters: versus 0.3 uM Cortistatin-14 agonist, IP-1 HTRF, read-out: MRGPR2 Antagonist Activity
- Protocol: CHO cells stably transfected to express human MRGPRX2 were maintained in an incubator at 37° C. with 5% CO2 and grown in F12 (HAM) media with 10% fetal bovine serum (FBS), 1% Glutamax, 1% penicillin/streptomycin, 800 μg/mL Geneticin (G418), and 300 μg/mL Hygromycin B. Cells were plated in a 384-well assay plate at 20,000 cells per well in 12 μL of Opti-MEM and kept in an incubator overnight. […] The plate was read on a Molecular Devices SpectraMax iD5 plate reader. […]
Measured endpoint: IC50

Endpoint output: IC50 of COc1cccc(C(=O)N[C@H]2CC[C@@H](Nc3cccc4nc(C#N)cn34)CC2)c1 . Value? 0.101 to 0.5 µM

And what about the molecule CN(CC(F)F)c1ccc(C(=O)N[C@H]2CC[C@@H](Nc3cccc4nc(C(F)F)cn34)CC2)cc1 ? < 0.05 µM

And what about the molecule Cc1ncc(C(=O)N[C@H]2CC[C@@H](Nc3cccc4nc(C(F)(F)F)cn34)CC2)n1C ? 0.101 to 0.5 µM

And what about the molecule CCOc1cc(C(=O)N[C@H]2CC[C@@H](Nc3cccc4nc(C(F)(F)F)cn34)CC2)ccn1 ? 0.101 to 0.5 µM

And what about the molecule Cn1cc(C(=O)N[C@H]2CC[C@@H](Nc3cccc4nc(C(F)(F)F)cn34)CC2)c2c(Cl)cccc21 ? < 0.05 µM

And what about the molecule COc1ccc(C(=O)N[C@@H]2CCC[C@H](Nc3cccc4sc(C(C)=O)cc34)C2)cc1 ? > 1 µM

And what about the molecule O=C(N[C@H]1CC[C@@H](Nc2cccc3nc(C(F)(F)F)cn23)CC1)c1c[nH]nc1C(F)(F)F ? < 0.05 µM

And what about the molecule COc1ccc(C(=O)N[C@@H]2CCC[C@H](Nc3cccc4oc(C(F)(F)F)nc34)C2)cc1 ? 0.501 to 1 µM
